assay: Half life in mouse at 7.1 mg/kg, po; format: ADME, organism-based; parameters: dose 7.1 mg/kg, route oral; details: in vivo
reported endpoint: half-life (min)
Kindly provide the numeric value in min only, without the unit symbol.

Q: Quick check: half-life of CCc1cccc(CC)c1Cc1ncc[nH]1 ?
A: 57

---

target: Trace amine-associated receptor 1 (Mus musculus); assay: Agonist activity at mouse TAAR1 receptor expressed in HEK293 cells after 30 mins relative to control; format: functional, cell-based
Threshold rule: Emax greater than or equal to 40% is rule met; below that, rule not met.

Q: API: above_or_equal(metric=Emax, cutoff=40%) for item COc1cccc(N(Cc2cnc[nH]2)C(C)C)c1
A: rule met

Q: Please check the record CC(C)N(Cc1cnc[nH]1)c1cccc(Cl)c1 and state if its Emax is at or above 40%.
A: rule met

Q: Form field: Emax at least 40%? Entry: COc1cccc(N(Cc2cnc[nH]2)C(C)C)n1
A: rule not met

Q: Kindly determine if Emax recorded for CC(C)N(Cc1cnc[nH]1)c1ccc(Cl)cc1 is above or exactly 40%.
A: rule not met

Q: Reported Emax at or above 40%? CC(C)N(Cc1ncc[nH]1)c1cccc(Cl)c1
A: rule met

Q: Dear colleague, could you confirm whether CC(C)N(Cc1cnc[nH]1)c1ccccc1 has Emax at or above 40%?
A: rule met

---

Target: 5-hydroxytryptamine receptor 1A (Homo sapiens, UniProt P08908)
Sequence (P08908 whole entry): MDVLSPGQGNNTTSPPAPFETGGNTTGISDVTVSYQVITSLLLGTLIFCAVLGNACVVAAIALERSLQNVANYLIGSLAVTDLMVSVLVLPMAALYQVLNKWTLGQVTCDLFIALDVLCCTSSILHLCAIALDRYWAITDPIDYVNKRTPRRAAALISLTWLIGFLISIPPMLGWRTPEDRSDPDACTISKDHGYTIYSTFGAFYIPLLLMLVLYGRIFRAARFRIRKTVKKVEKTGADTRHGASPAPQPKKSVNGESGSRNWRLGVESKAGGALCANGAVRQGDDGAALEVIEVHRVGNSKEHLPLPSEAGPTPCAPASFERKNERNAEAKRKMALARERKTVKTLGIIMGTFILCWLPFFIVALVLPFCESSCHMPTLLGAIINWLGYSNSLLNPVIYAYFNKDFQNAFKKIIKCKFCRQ
reported endpoint: pKi
Reminder that pKi means the negative base-10 logarithm of the concentration expressed in mol/L.

Q: I would be grateful if you could share the reported pKi for CCc1cccc(CC)c1Cc1ncc[nH]1 .
A: 5.89

---

tested on: Liver microsomes; test: Intrinsic clearance in human liver microsomes assessed per mg protein; assay type: ADME, Microsome
reported endpoint: CLint (µL/min/mg)
Dear colleague, please return just the value in µL/min/mg, with no unit written.

Q: Dear colleague, I am looking for the recorded CLint of the following molecule: CC(C)N(Cc1cnc[nH]1)c1ccc(Cl)cc1
A: 18

---

assay: Clearance in mouse at 5 mg/kg, iv; assay type: ADME, organism-based; parameters: dose 5 mg/kg, route intravenous; conditions: in vivo
reported endpoint: clearance

Q: Quick check: clearance of CC(C)N(Cc1cnc[nH]1)c1ccc(Cl)cc1 ?
A: 24 mL/min/kg

---

Assignment: determine reported Emax for the given compounds.
biological target: Trace amine-associated receptor 1 (Rattus norvegicus) (UniProt Q923Y9); test: Agonist activity at rat TAAR1 receptor expressed in HEK293 cells after 30 mins relative to control; assay type: functional, cell-based
Sequence (Q923Y9 whole entry): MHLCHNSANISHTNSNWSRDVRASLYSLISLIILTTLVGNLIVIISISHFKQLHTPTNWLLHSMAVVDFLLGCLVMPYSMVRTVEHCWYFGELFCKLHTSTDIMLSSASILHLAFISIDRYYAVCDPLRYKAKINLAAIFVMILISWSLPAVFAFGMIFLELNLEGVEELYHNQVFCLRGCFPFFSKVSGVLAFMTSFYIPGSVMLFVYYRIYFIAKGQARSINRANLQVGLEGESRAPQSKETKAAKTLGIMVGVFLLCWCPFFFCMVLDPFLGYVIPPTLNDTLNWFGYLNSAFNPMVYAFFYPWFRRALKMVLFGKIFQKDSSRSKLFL
Please reply with the bare figure in % and do not write the unit itself.

Q: Hi! What's the reported Emax for COc1cccc(N(Cc2cnc[nH]2)C(C)C)c1 on Trace amine-associated receptor 1 (Rattus norvegicus) (UniProt Q923Y9)?
A: 25

Q: Write down the reported Emax of CC(C)N(Cc1ncc[nH]1)c1cccc(Cl)c1 , test system: Trace amine-associated receptor 1 (Rattus norvegicus) (UniProt Q923Y9).
A: 60

Q: Find Emax (Trace amine-associated receptor 1 (Rattus norvegicus) (UniProt Q923Y9)) for the entry COc1cccc(N(Cc2cnc[nH]2)C(C)C)n1
A: 18

Q: Lab note: need Emax with Trace amine-associated receptor 1 (Rattus norvegicus) (UniProt Q923Y9) for entry CC(C)N(Cc1cnc[nH]1)c1ccc(Cl)cc1 , please look it up.
A: 24

Q: // map CC(C)N(Cc1cnc[nH]1)c1cccc(Cl)c1 to recorded Emax (system: Trace amine-associated receptor 1 (Rattus norvegicus) (UniProt Q923Y9))
A: 22

Q: Lab note: need Emax with Trace amine-associated receptor 1 (Rattus norvegicus) (UniProt Q923Y9) for entry CC(C)N(Cc1cnc[nH]1)c1ccccc1 , please look it up.
A: 34
